# targetOrSystem: SRPK3 (human) (UniProt Q9UPE1)
# Sequence (Q9UPE1 whole entry, looked up): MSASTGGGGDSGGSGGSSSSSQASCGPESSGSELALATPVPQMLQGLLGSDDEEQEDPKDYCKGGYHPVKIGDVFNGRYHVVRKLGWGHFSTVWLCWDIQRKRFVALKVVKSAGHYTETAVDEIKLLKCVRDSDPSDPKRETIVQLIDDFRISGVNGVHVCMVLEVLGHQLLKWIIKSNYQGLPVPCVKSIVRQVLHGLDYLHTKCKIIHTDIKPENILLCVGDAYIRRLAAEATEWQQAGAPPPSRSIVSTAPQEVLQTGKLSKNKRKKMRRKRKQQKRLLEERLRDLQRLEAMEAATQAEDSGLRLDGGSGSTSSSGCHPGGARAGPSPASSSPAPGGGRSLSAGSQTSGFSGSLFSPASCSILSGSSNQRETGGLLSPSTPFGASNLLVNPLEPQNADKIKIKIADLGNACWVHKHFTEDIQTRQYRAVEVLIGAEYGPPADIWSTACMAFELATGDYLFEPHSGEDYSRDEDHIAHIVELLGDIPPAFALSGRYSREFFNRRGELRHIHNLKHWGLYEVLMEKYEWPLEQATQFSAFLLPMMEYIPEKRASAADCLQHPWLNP
# test: KINOMEscan competition binding
# conditionSet: compound 10.0 µM
Here the recorded kinase still bound, per cent of control is given for each entry.

{"columns": ["compound", "kinase still bound, per cent of control, %"],
 "data": [
  ["CCc1nc(-c2cccc(C)c2)c(-c2ccnc(NC(=O)c3ccccc3)c2)s1", 100],
  ["COc1cc(C)c(Sc2cnc(NC(=O)c3ccc(CNC(C)C(C)C)cc3)s2)cc1C(=O)N1CCN(C(C)=O)CC1 (configuration not stated)", 100],
  ["N#C/C(=C1/Nc2ccccc2S1)c1ccnc(NCCc2cccnc2)n1", 23],
  ["CC(=O)c1c(C)c2cnc(Nc3ccc(N4CCNCC4)cn3)nc2n(C2CCCC2)c1=O", 23],
  ["O=c1[nH]c2ccccc2n1C1CCN(Cc2ccc(-c3nc4cc5[nH]cnc5cc4nc3-c3ccccc3)cc2)CC1", 87],
  ["CCCS(=O)(=O)Nc1ccc(F)c(C(=O)c2c[nH]c3ncc(Cl)cc23)c1F", 100],
  ["Cc1cn(-c2cc(C(=O)Nc3ccc(C)c(NC(=O)c4ccno4)c3)cc(C(F)(F)F)c2)cn1", 100],
  ["C=CC(=O)Nc1ccc(C(=O)c2sc(Nc3ccc(N4CCN(C)CC4)cc3OC)nc2N)cc1", 54],
  ["CNC(=O)Nc1ccc(-c2nc(N3CC4CCC(C3)O4)c3cnn(C4CCC5(CC4)OCCO5)c3n2)cc1", 100],
  ["CCN1CCN(Cc2ccc(NC(=O)c3ccc(C)c(/C=C/c4cnc5[nH]ccc5c4OC)c3)cc2C(F)(F)F)CC1", 13],
  ["COc1cc(N2CCC(C(N)=O)CC2)ccc1Nc1nc(N)c(Cl)c(Nc2ccccc2S(=O)(=O)C(C)C)n1", 100],
  ["COc1cc2c(Nc3ccc(NC(=O)c4ccccc4)cc3)ncnc2cc1OCCCN1CCOCC1", 100]
]}

The origin of these recorded values is the kinase profiling compilation of Christmann-Franck et al. (2016).
